This collection of values is drawn from patent US20080113956A1.

- experiment description: SOD-like activity in vitro (xanthine/xanthine oxidase, ferricytochrome c; McCord and Fridovich)
- Format: biochemical
- cond: 0.1 mM EDTA, 0.05 M phosphate buffer pH 7.8, 25° C.; read-out: IC50 concentration that causes 50% inhibition of cytochrome c reduction by O2^−
readout kind: pIC50
For clarity, pIC50 is expressed as the negative log10 of concentration in mol/L.

Ask: pIC50 lookup needed for CC[n+]1ccccc1-c1c2nc(c(-c3cccc[n+]3CC)c3ccc([n-]3)c(-c3cccc[n+]3CC)c3nc(c(-c4cccc[n+]4CC)c4ccc1[n-]4)C=C3)C=C2.[Mn+3] , thanks.
Result: 7.35

---

- experiment description: SOD activity in U/mg (reduction of cytochrome c or photoreduction of NBT)
- Assay type: biochemical
- cond: unit = amount that inhibits one half the reduction of cytochrome c or photoreduction of NBT
readout kind: SOD

[[record]]
smiles_input = "C[n+]1ccc(-c2c3nc(c(-c4cc[n+](C)cc4)c4[n-]c(c(Br)c4Br)c(-c4cc[n+](C)cc4)c4nc(c(-c5cc[n+](C)cc5)c5[n-]c2c(Br)c5Br)C(Br)=C4Br)C(Br)=C3Br)cc1.[Mn+3]"
meas_value = "18,460 U/mg"

[[record]]
smiles_input = "O=C(O)c1ccc(-c2c3nc(c(-c4ccc(C(=O)O)cc4)c4ccc([nH]4)c(-c4ccc(C(=O)O)cc4)c4nc(c(-c5ccc(C(=O)O)cc5)c5ccc2[nH]5)C=C4)C=C3)cc1.[Fe+3]"
meas_value = "24 U/mg"

[[record]]
smiles_input = "C[n+]1ccccc1-c1c2nc(c(-c3cccc[n+]3C)c3ccc([nH]3)c(-c3cccc[n+]3C)c3nc(c(-c4cccc[n+]4C)c4ccc1[nH]4)C=C3)C=C2.[Zn+2]"
meas_value = "trace"

[[record]]
smiles_input = "C[n+]1ccc(-c2c3nc(c(-c4cc[n+](C)cc4)c4ccc([nH]4)c(-c4cc[n+](C)cc4)c4nc(c(-c5cc[n+](C)cc5)c5ccc2[nH]5)C=C4)C=C3)cc1.[Zn+2]"
meas_value = "trace"


---

- Test system: rat brain homogenates
- experiment description: Iron/ascorbate mediated lipid peroxidation of rat brain homogenates (TBARS)
- Assay type: biochemical
- cond: rat brain homogenate, 30 minutes incubation with iron and ascorbate, TBARS
readout kind: IC50 (µM)
State just the number; it will be interpreted in µM.

[[record]]
compound = "Cc1c(C)c2c(c(C)c1O)CCC(C)(C(=O)O)O2 (stereo not drawn) [Trolox]"
meas_value = 204

[[record]]
compound = "C[n+]1ccc(-c2c3nc(c(-c4cc[n+](C)cc4)c4ccc([nH]4)c(-c4cc[n+](C)cc4)c4nc(c(-c5cc[n+](C)cc5)c5ccc2[nH]5)C=C4)C=C3)cc1.[Zn+2] [ZnTM-4-PyP]"
meas_value = 241


Ask: What value of measured IC50 is listed for C[n+]1ccccc1-c1c2nc(c(-c3cccc[n+]3C)c3ccc([nH]3)c(-c3cccc[n+]3C)c3nc(c(-c4cccc[n+]4C)c4ccc1[nH]4)C=C3)C=C2.[Zn+2] [ZnTM-2-PyP] ?
Result: 591
